Reference source: patent US20240246937A1

Target: recombinant IL4I1 (Homo sapiens (Human))
Sequence (Q96RQ9 22-567): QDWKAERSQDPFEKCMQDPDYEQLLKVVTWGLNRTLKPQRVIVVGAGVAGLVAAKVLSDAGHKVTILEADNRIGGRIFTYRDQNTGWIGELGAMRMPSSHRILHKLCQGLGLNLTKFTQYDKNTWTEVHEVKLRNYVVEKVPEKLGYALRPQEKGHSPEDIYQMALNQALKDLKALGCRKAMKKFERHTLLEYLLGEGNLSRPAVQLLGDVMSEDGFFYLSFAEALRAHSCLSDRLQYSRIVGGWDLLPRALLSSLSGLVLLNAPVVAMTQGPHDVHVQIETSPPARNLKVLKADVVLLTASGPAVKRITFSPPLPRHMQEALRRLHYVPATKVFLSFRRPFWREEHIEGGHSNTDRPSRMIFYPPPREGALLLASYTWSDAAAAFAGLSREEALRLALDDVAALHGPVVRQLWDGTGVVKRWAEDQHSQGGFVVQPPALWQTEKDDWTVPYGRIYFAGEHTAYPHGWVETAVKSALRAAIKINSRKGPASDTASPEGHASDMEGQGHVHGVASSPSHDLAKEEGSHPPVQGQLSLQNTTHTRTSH
Experiment: IL4I1 Enzymatic Assay (Amplex Red/HRP coupled fluorescence detection of H2O2)
Format: biochemical
Settings: 240 min; recombinant IL4I1, four-hour pre-incubation with compound
measured-parameter: EC50 (nM)

P. O=c1c(=O)n(C2CCC2)ccn1Cc1ccc(-n2nccn2)cn1
Q. O=c1c(=O)n(C2CCCC2)ccn1Cc1nnc(-c2ccc(F)cc2)s1
IN: Record comparison, field EC50: mark the lower of P and Q . Return value: the label identifying the chosen record.
OUT: Q

P. CC(c1ccc(-c2ccccc2)nc1)N1CCN(C2CCCC2)C(=O)C1=O (single isomer, unassigned)
Q. O=c1c(=O)n(C2CCC2)ccn1Cc1cnn(-c2ccccc2)c1
R. C[C@@H](c1nnc(-c2ccccc2)s1)N1CCN(C2CCCC2)C(=O)C1=O
S. O=c1c(=O)n(C2CCC2)ccn1Cc1cc(-c2ccc(F)cc2)on1
T. N#CC1(n2ccn(Cc3cn(-c4ccccn4)nn3)c(=O)c2=O)CC1
IN: Write the entries in order, lowest recorded EC50 first. # format: label list in the order the request specifies
OUT: S, Q, P, R, T
(S: 1 nM, Q: 5 nM, P: 12 nM, R: 25 nM, T: 78 nM)

1. O=c1c(=O)n(C23CC(C2)C3)ccn1Cc1ccc(-c2ccccc2)cn1
2. CC1(n2ccn(Cc3cc(-c4cccnc4)on3)c(=O)c2=O)CC1
IN: Response body: label of entry with the larger EC50; valid values 1 , 2 . Your answer should be the label attached to the chosen record.
OUT: 2
(2: 26 nM, 1: 4 nM)

1. O=C1C(=O)N(C23CC(C2)C3)CCN1Cc1cc(-c2ccc(F)cc2)on1
2. O=c1c(=O)n(C23CC(F)(C2)C3)ccn1Cc1cn(-c2ccccn2)nn1
IN: Of the pair 1 and 2 , name the member with the lesser recorded EC50. Which one? Tell me its label.
OUT: 1
